target: T1, soluble recombinant HLA-DR2 molecules (MHC class II HLA-DR2 protein) (human)
T1 construct: Soluble, empty protein from Drosophila S2 cells, captured on plates by antibody LB3.1; also called MHC class II DR2 protein; recombinant HLA-DR2 protein
experimentalDetails: competition ELISA on soluble HLA-DR2; competitor biotinylated MBP 85-99 (0.13 µM)
experimentalReadout: IC50 (µM)
Numbers only, in µM.

Sample records with IC50:
EAKKYEAYKAAAAAA [synthetic peptide #102] | 20
EAEAYKAYKAAAAAA [synthetic peptide #96] | 6

// moving on: another record for IC50
Prompt line: Report IC50 for AAKAYEAYKAAAAAA [synthetic peptide #93] please.
Response line: 8

Source: patent US20060020109A1
